Assay: chemical genetic growth profiling, strain panel (AID 1159580);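 further: tested at 20 µM; growth read once vehicle control cultures reached saturation at 30 °C; 1 = growth at the plate median or of vehicle wells; lower values mean less growth of the strain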
Conditions: S. cerevisiae deletion strains, growth OD, locus YMR129W, hits give low values
Out of some 5,500 compounds screened, about 2,000 (36%) were called active. Inconclusive results (about 18%) are left out. Some of the results follow.
metric.name: normalized growth
Write no unit; give the number alone.

For orientation, consider the following solved cases.
{"molecule": "CC(=O)O[C@H]1C[C@H](O[C@H]2[C@@H](O)C[C@H](O[C@H]3[C@@H](O)C[C@H](O[C@H]4CC[C@@]5(C)C(CCC6C5C[C@@H](O)[C@]5(C)[C@@H](C7=CC(=O)OC7)CC[C@]65O)C4)O[C@@H]3C)O[C@@H]2C)O[C@H](C)[C@H]1O[C@@H]1O[C@H](CO)[C@@H](O)[C@H](O)[C@H]1O (stereo not given in full)", "metric.name": "normalized growth", "endpoint.value": 0.991}
{"molecule": "CC1(C)O[C@@H]2CC3C4C[C@H](F)C5=CC(=O)C=CC5(C)C4C(O)CC3(C)[C@]2(C(=O)CO)O1 (stereo not given in full)", "metric.name": "normalized growth", "endpoint.value": 1.01}
{"molecule": "FC(F)(F)C(Cl)Br (stereo not given)", "metric.name": "normalized growth", "endpoint.value": 1.03}
{"molecule": "COc1c(O)cc2c(-c3ccccc3)cc(=O)oc2c1OC", "metric.name": "normalized growth", "endpoint.value": 0.995}
{"molecule": "C[C@@H]1CC[C@@]2(OC1)OC1C(O)C3C4CC[C@H]5C[C@H](O[C@@H]6O[C@H](CO)[C@H](O[C@@H]7O[C@H](CO)[C@@H](O)[C@H](O[C@@H]8OC[C@@H](O)[C@H](O)[C@H]8O)[C@H]7O[C@@H]7O[C@H](CO)[C@H](O)[C@H](O[C@@H]8O[C@H](CO)[C@@H](O)[C@H](O)[C@H]8O)[C@H]7O)[C@H](O)[C@H]6O)[C@H](O)C[C@]5(C)C4CC[C@]3(C)C1[C@@H]2C (stereo not given in full)", "metric.name": "normalized growth", "endpoint.value": 1.03}

Query: normalized growth; subject: NC(=O)CC[C@@H](N)C(=O)O
1.02

Now give it for COc1ccc(-c2coc3cc(OC(C)=O)cc(OC(C)=O)c3c2=O)cc1 too.
0.966

Query CC(=O)O[C@H]1C[C@@H](O)C(C)(C)C2C[C@@H](OC(C)=O)[C@]3(C)C(CC[C@@]4(C)[C@H](c5ccoc5)OC(=O)C5OC543)[C@]21C (stereo not given in full) next
1.03

Next record, please: CC(C)(O)[C@@H]1CC[C@](C)([C@H]2[C@@H](O)C[C@@]3(C)C4C[C@H](O[C@@H]5O[C@H](CO)[C@@H](O)[C@H](O)[C@H]5O)C5C(C)(C)[C@@H](O[C@@H]6OC[C@@H](O)[C@H](O)[C@H]6O)CC[C@@]56C[C@@]46CC[C@]23C)O1 (stereo not given in full)
0.995

Okay, and O=C(O)c1cn(-c2ccc(F)cc2)c2cc(N3CCNCC3)c(F)cc2c1=O ?
0.997

Would you mind doing Nc1nnc(-c2cccc(Cl)c2Cl)c(N)n1 as well?
1.02

And then NCC(=O)CCC(=O)O , what is it?
0.99

Also CN(N=O)C(=O)N[C@@H]1[C@@H](O)[C@H](O)[C@@H](CO)O[C@@H]1O , if possible.
1

Item: CC1(C)O[C@@H]2CC3C4CCC5=CC(=O)C=C[C@]5(C)[C@@]4(F)[C@@H](O)C[C@]3(C)[C@]2(C(=O)CO)O1 (stereo not given in full)
1.01

O=C1CCc2cc(OCCCCc3nnnn3C3CCCCC3)ccc2N1 ?
0.985
